- Tested on: MS2 coat protein
- METHOD: apparent KD of MS2 coat protein; designed switch direction (-1 OFF switch, 1 ON switch): -1; higher = weaker reporter binding
- CONDITIONS: input ligand: FMN 200 uM
Threshold check on apparent KD of MS2 coat protein: at or above 30 nM gives label 1, strictly below gives label 0.

Query: Dear colleague, could you confirm whether ACACACAGAGGAUAUCUUCCGCAUGACAUGAGGAUCACCCAUGUGUGCAUGCCCAAAAGUAGAGAAGGCUGUGUGU [eternacac ex5r4 #3] (Eterna round: R97, puzzle: Exclusion 5) has apparent KD of MS2 coat protein at or above 30 nM?
Result: label 0

Query: Dear colleague, could you confirm whether ACUGGUCGAGGAUAUACAUGAGGAUCACCCAUGUGAUCAGCAGUCCUCGGACUGCAAUGUAGAAGGCGACCAGU [E3/1-A2] (Eterna round: R97, puzzle: Exclusion 3) has apparent KD of MS2 coat protein at or above 30 nM?
Result: label 1

Query: Dear colleague, could you confirm whether CUUUUGUGAGGAUAUUAGUAGUAAAUAAAUAAAAUUAUUACUGAGAAGGCACAUGAGGAUCACCCAUGUUCCUC [salish99_ex4_r3_062] (Eterna round: R96, puzzle: Exclusion 4) has apparent KD of MS2 coat protein at or above 30 nM?
Result: label 1

Query: Dear colleague, could you confirm whether UGUAAGCUAGGAUAUGCUUUGGGAAAGCAUUCCUUCGAUAAACUUGAGGAUCACCCAAGUAGAAGGAGCUUACC [salish99_ex2_r4_008] (Eterna round: R97, puzzle: Exclusion 2) has apparent KD of MS2 coat protein at or above 30 nM?
Result: label 0

Query: Dear colleague, could you confirm whether AGAUCACAUGAGGAUCACCCAUGUCAGGAUAUCGUCACUGGAGCCUCGGCUCCAGUGACGAGAAGGGAUAAUUA [E1/4-A2] (Eterna round: R97, puzzle: Exclusion 1) has apparent KD of MS2 coat protein at or above 30 nM?
Result: label 1

====

- Test system: MS2 coat protein
- METHOD: apparent KD of MS2 coat protein; designed switch direction (-1 OFF switch, 1 ON switch): -1; higher = weaker reporter binding
- CONDITIONS: input ligand: FMN 200 uM
MEASURED_METRIC: apparent KD of MS2 coat protein (nM)
A number alone suffices; assume nM.

// field: apparent KD of MS2 coat protein; key: AUAAAUCAUGUAGGAUAUGCGUGGCGAAGCUAUGCAGAAGGACAUGAGGAUCACCCAUGUGCUUGCGUCUGCGUACAGAUGCUA [Mat - Exclusion NG 1 - Mod of JL - D5] (Eterna round: R96, puzzle: Exclusion NG 1) ; value = 330

// field: apparent KD of MS2 coat protein; key: UAUUUAGCAAGUAGAUCCUACAUGAGGAUCACCCAUGUGCUCUGAAAUAACGCAGAAUUACUGCGAGCUCGUCUUAU [Winner reversed engineered 28] (Eterna round: R97, puzzle: Sensor, turn-off variant 1) ; value = 1080

// field: apparent KD of MS2 coat protein; key: CCGGCUUAGCAGGAUAUAGGAGUCGAUAGACACCUAGAAGGGCUAACAUGAGGAUCACCCAUGUGUCCUACCGG [Mod of Eli 2 - Jieux - Exclusion 6] (Eterna round: R97, puzzle: Exclusion 6) ; value = 102

// field: apparent KD of MS2 coat protein; key: AUAAAUUUAGAGGAUAUCUUAUAUGGGCGACCGAGAGAAGGCUGGACAUGAGGAUCACCCAUGUGCUUCGGUGA [Eternabot (L1) Solution 96] (Eterna round: R97, puzzle: Exclusion 6) ; value = 67.5

// field: apparent KD of MS2 coat protein; key: AUGUGCACGCUGCGGUCCUACAUGAGGAUCACCCAUGUGGUCUGGUGGCGUGGGUCGCCGGACUUGGCUCGUCUUGU [salish99_S_TOV1_R5_030] (Eterna round: R97, puzzle: Sensor, turn-off variant 1) ; value = 18.6

// field: apparent KD of MS2 coat protein; key: ACAUGUAAUGUAGGAUAUUUUACACAUGAGGAUCACCCAUGUAACCGGAGGCUUUACUAUGAGUAAGAGAAGGGUAUGUACAUG [Ex NG2 #63] (Eterna round: R96, puzzle: Exclusion NG 2) ; value = 90.5

// field: apparent KD of MS2 coat protein; key: CCUCGACAUGAGGAUCACCCAUGUAAGGAUAUGUUGACGAGCCUGAAAAGGCUGGUCAACAGAAGGUAUAUGUA [Exclusion 1 (Mod 1b.1 solution 16 by Eternabot)] (Eterna round: R97, puzzle: Exclusion 1) ; value = 112

// field: apparent KD of MS2 coat protein; key: AGGUGUAGAGGAUAUACAGUGUAUUACAUGAGGAUCACCCAUGUCCUUCAAUGGGUGUCAGUAGAAGGCUACACCA [Omei Ex5 C2] (Eterna round: R97, puzzle: Exclusion 5) ; value = 255

// field: apparent KD of MS2 coat protein; key: UAAGCAAGCGAAAGAUCCCACAUGAGGAUCACCCAUGUGCUCGUCUUAUAAGGUACUGUGACGAAAGUCACGGUACC [Sensor 3, v1 - 91 v22] (Eterna round: R97, puzzle: Sensor, turn-off variant 1) ; value = 140

// field: apparent KD of MS2 coat protein; key: GGUAGAGUGGUAGGAUAUCCGACUGAAACAGACGGAGAAGGACCACAGUCACUGGGUCCAAAUAUAAUAAACAAUAAAUCUACC [pwkr exNG1 F6.1] (Eterna round: R96, puzzle: Exclusion NG 1) ; value = 307

// field: apparent KD of MS2 coat protein; key: CCUCCCUGAGGAUAUCCACCCUCAUACAUGAGGAUCACCCAUGUUCAUCCGUGGGUACCCGGAGAAGGCAGAUUUC [Megrez-a] (Eterna round: R97, puzzle: Exclusion 5) ; value = 41.9

// field: apparent KD of MS2 coat protein; key: GGUACUAUCACCUGAGUGGUAGUGCAACAAGCUUGUGAUACAUGAGGAUCACCCAUGUCCUCAUUUGCUCGUCUUAU [JL-sv3-2.25 JL mod] (Eterna round: R96, puzzle: Sensor v3, turn-off variant 2) ; value = 237

// field: apparent KD of MS2 coat protein; key: GUGCACGUAGGAUAUUAGAAGGAGAACAUGAGGAUCACCCAUGUUAUCCAUCACCUCCGCUAAGAAGGAUGGCCAC [EX5 C.6] (Eterna round: R97, puzzle: Exclusion 5) ; value = 14.1

// field: apparent KD of MS2 coat protein; key: CUUUUGUGAGGAUAUGGUCUCGAUGACAUGAGGAUCACCCAUGUAACAUGGGACUUGUGACUAGAAGGCACUAACG [JR_Ex5_Sub024] (Eterna round: R97, puzzle: Exclusion 5) ; value = 22.6

// field: apparent KD of MS2 coat protein; key: AAGUAGAGCUAAGGAUAUAUAGAGUAGUAGAAGAUAGAAGGUAGAAGUAGAAGAUGAUGAUGAAGAUGAAGUAGAUGAAGUAGA [TEST1] (Eterna round: R96, puzzle: Exclusion NG 1) ; value = 24.7

// field: apparent KD of MS2 coat protein; key: GGGCUGCGACACAGCCCAACAAAACAUGAGGAUCACCCAUGUCAGGAUAUACCGAUGCAGCAUCUGUAGAAGGGACAGAUCCAA [Usorxe] (Eterna round: R96, puzzle: Exclusion NG 3) ; value = 120

// field: apparent KD of MS2 coat protein; key: UAUUAACAAGUAAGAUCCAACAUGAGGAUCACCCAUGUGCUCGUCUUAUAAGGUACUGUGACGAAAGUCACGGUACC [Eli 87 v1] (Eterna round: R97, puzzle: Sensor, turn-off variant 1) ; value = 21.2

// field: apparent KD of MS2 coat protein; key: UACCUGAGGCAAAGCUUUAGGUAAACAUGAGGAUCACCCAUGUAGGAUAUGGUAGGCAAAGCUUACCAGAAGGACAUGAUAAUU [Mat - Exclusion NG 3 - Mod of JL - D35] (Eterna round: R96, puzzle: Exclusion NG 3) ; value = 544

====

- Tested on: MS2 coat protein
- METHOD: apparent KD of MS2 coat protein; higher = weaker reporter binding
- CONDITIONS: Eterna round: R107; input ligand: arginine 13.2 mM
Threshold check on apparent KD of MS2 coat protein: at or above 20 nM gives Met, strictly below gives Not met.

Query: Dear colleague, could you confirm whether UUUUACAUGAGGAUCACCCAUGUGCGGCGCCGAGGACCGGUACGGCCGCCACUCGCAUGGGCAUGCCGCGAUAUCAUUCCUGAAC [theeternabot_sameState_MS2_Trp_A_43] has apparent KD of MS2 coat protein at or above 20 nM?
Result: Met

Query: Dear colleague, could you confirm whether UUUAAAAUCAGAAGGAGCGUGAUAAACAUGAGGAUCACCCAUGUCGAAAAUUUAAUAUAAUCACAGGUAGGUCGCUGUAAUAUUU [Same State - Ariginine B] has apparent KD of MS2 coat protein at or above 20 nM?
Result: Not met

Query: Dear colleague, could you confirm whether UUAGAUAUGACAGAUACCAGCGUGUUGUAGAACAUGAGGAUCACCCAUGUAGUGAUCGAGCGCCCUUGGCAGCUGGUGUGUUUGG [7.S] has apparent KD of MS2 coat protein at or above 20 nM?
Result: Met

Query: Dear colleague, could you confirm whether GAGGACAUGAGGAUCACCCAUGUAAAUGAUACCAGUUGAGAGAGAGGCCCUUGGCAGCGUAAACAUGACAGCGAGCGAGAGUGCG [ss-theoA-0] has apparent KD of MS2 coat protein at or above 20 nM?
Result: Not met

Query: Dear colleague, could you confirm whether GGGCAAGGUGCCGCCUUCGCCCACUGAGAAGGAGCGCAGGGUACUGCAGGUAGGUCGCUCAGACAUGAGGAUCACCCAUGUAGGA [Esislees] has apparent KD of MS2 coat protein at or above 20 nM?
Result: Met

Query: Dear colleague, could you confirm whether ACGGAUCGGAAACGAUCCGCGGCGCGGGUGCGAGGACCGGUACGGCCGCCACUCGGGUAACAUGAGGAUCACCCAUGUCCGAUUU [ETA NP+V+V2 #12] has apparent KD of MS2 coat protein at or above 20 nM?
Result: Met

Query: Dear colleague, could you confirm whether CAAUAAGUACCGGUCCUCAGAUCCUCAUGACGAGGACCGGUACGGCCGCCACUCGAAACAUGAGGAUCACCCAUGUAAUAAUAAU [Brourdmod01] has apparent KD of MS2 coat protein at or above 20 nM?
Result: Not met

Query: Dear colleague, could you confirm whether `UGUAUGUGAUCUGAUACCAGCUUUGAUAACCUGAGGAUCACCCUGGUAAAGGCGAAAGCCAGCCCUUGGCAGCAGAUCGCAUACU` has apparent KD of MS2 coat protein at or above 20 nM?
Result: Met

Query: Dear colleague, could you confirm whether GAUGCACAUGAGGAUCACCCAUGUCCUGAUACCAGAACGCGACUUUUCCCUUGGCAGCAGAAUUCACUUUUUUACAUUCAUACUG [theeternabot_sameState_MS2_Theo_A_11] has apparent KD of MS2 coat protein at or above 20 nM?
Result: Met

Query: Dear colleague, could you confirm whether AUUGUCGUGUCGGCCGCCACUGUCAUGGUUUUCGUGGAAAACAUGAGGAUCACCCAUGUAAUUGACAGGACCGGGACAUGGCGGC [Ricegesoer] has apparent KD of MS2 coat protein at or above 20 nM?
Result: Not met

Query: Dear colleague, could you confirm whether `UGUAUGGACUGAAGGAGCGGGUAAAUAACUUGAGGAUCACCCAGGUAAAAGGCGAAAGCCACCCAGGUAGGUCGCAGUCCAUACU` has apparent KD of MS2 coat protein at or above 20 nM?
Result: Met
